- Tested on: MDA-MB-231 and HCT-116 cell lines
- TEST_DESCRIPTION: Growth inhibition screening assay (In Cell IC50)
- Assay type: cell-based, human
- CONDITIONS: Homo sapiens, 72 h; 3 days with compound
- Method: Cell were maintained in standard tissue culture media (RPMI1640, +10% fetal bovine serum, plus antibiotic) and grown in a standard humidified 5% CO2 incubator at 37° C. […] Cell growth was assessed after 3 days using the DNA dye binding assay, as originally described by LaBarca and Paigen. Relative growth was independently calculated for each cell line, based on DNA content from corresponding cells grown in control media plus diluent (DMSO). […]
pIC50: −log10 of the molar value.
Recorded pIC50 values for a group of compounds are listed next.
PROPERTY_LABEL: pIC50

> print(dat)
                               smiles.entry                    target.of.assay  property.label  test.result
1  CC(C)(NC(=O)CN1C(=O)c2ccccc2C1=O)C(=O)NCCCC[C@H](NC(=O)CC(O)(C(F)(F)F)C(F)(F)F)C(=O)O  MDA-MB-231 and HCT-116 cell lines           pIC50         4.52
2     O=C(N/N=C/c1c(O)ccc2ccccc12)c1ccccc1O  MDA-MB-231 and HCT-116 cell lines           pIC50         6.42
